- TGT: T1, recombinant LILRB1 ECD (human, UniProt Q8NHL6 24-461)
- T1 construct: also called biotinylated LILRB1 ECD
- PROCEDURE_DETAILS: ELISA, LILRB1 ECD binding to HLA-G-Fc
- Procedure: HLA-G inhibition was tested by ELISA. 384-well Maxisorp plates were coated with 2 ug/mL B2M-HLA-G fused to a mouse IgG2a-Fc and the plates were blocked with 2% (w/v) BSA in PBST. […] After three wash cycles with PBST, residual LILRB binding to HLA-G was detected by developing the ELISA with TMB substrate.
ENDPOINT_LABEL: IC50 (nM)
Express it in nM; write the number only.

Worked cases, answers included:
BINDER | OBSERVED_RESULT
A-005 (antibody, V domains shown, tested as IgG) VH: QVQLVQSGAEVKKPGSSVKVSCKASGGTFTIYAINWVRQAPGQGLEWMGGIIPGFHSANYAQKFQGRVTITADESTSTAYMELSSLRSEDTAVYYCAKDLGTYSSGWPYYYGMDVWGQGTTVTVSS VL: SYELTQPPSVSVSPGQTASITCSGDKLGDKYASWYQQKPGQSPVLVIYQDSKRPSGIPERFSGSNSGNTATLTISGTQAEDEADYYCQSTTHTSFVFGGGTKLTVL | 5
A-027 (antibody, V domains shown, tested as IgG) VH: QVQLVQSGAEVKKPGSSVKVSCKASGGSFTGYAISWVRQAPGQGLEWMGGILPSFYTAVYAQKFQGRVTITADESTSTAYMELSSLRSEDTAVYYCAKGPPVGSSSWYTDWYFDLWGRGTLVTVSS VL: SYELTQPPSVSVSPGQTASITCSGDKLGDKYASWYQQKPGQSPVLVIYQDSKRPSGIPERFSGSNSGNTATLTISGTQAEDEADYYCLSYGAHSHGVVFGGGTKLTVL | 7
A-030 (antibody, V domains shown, tested as IgG) VH: QVQLVQSGAEVKKPGSSVKVSCKASGGSFQSYAFSWVRQAPGQGLEWMGGIVPIYYTATYAQKFQGRVTITADESTSTAYMELSSLRSEDTAVYYCAKGPPVGSSSWYTDWYFDLWGRGTLVTVSS VL: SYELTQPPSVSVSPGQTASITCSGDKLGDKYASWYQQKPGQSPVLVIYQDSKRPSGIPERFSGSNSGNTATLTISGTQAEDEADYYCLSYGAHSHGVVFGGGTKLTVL | 6.7
A-010 (antibody, V domains shown) VH: QVQLVQSGAEVKKPGSSVKVSCKASGGTFQSQAFAWVRQAPGQGLEWMGSIIPGFSTANYAQKFQGRVTITADESTSTAYMELSSLRSEDTAVYYCAKDLGTYSSGWPYYYGMDVWGQGTTVTVSS VL: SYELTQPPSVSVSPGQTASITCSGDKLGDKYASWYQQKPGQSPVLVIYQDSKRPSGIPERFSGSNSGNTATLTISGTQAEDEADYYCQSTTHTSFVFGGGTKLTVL | 4.1
A-033 (antibody, V domains shown, tested as IgG) VH: QVQLVQSGAEVKKPGSSVKVSCKASGYTFSSHAMSWVRQAPGQGLEWMGGIIPTFKTAVFAQKFQGRVTITADESTSTAYMELSSLRSEDTAVYYCAKGPPVGSSSWYTDWYFDLWGRGTLVTVSS VL: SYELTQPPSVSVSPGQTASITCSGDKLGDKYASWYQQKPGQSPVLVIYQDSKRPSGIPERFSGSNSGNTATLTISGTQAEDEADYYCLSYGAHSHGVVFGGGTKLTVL | 8.3
A-031 (antibody, V domains shown, tested as IgG) VH: QVQLVQSGAEVKKPGSSVKVSCKASGYTFTKTAMSWVRQAPGQGLEWMGGIIPSYYTAVYAQKFQGRVTITADESTSTAYMELSSLRSEDTAVYYCAKGPPVGSSSWYTDWYFDLWGRGTLVTVSS VL: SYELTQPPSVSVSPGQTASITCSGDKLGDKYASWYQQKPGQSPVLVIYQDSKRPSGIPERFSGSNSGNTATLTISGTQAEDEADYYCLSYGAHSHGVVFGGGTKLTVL | 4.1

We next turn to a different binder, shown below.
Lab note: A-032 (antibody, V domains shown, tested as IgG) VH: QVQLVQSGAEVKKPGSSVKVSCKASGGTFQSYAFSWVRQAPGQGLEWMGGIVPQYSTAVYAQKFQGRVTITADESTSTAYMELSSLRSEDTAVYYCAKGPPVGSSSWYTDWYFDLWGRGTLVTVSS VL: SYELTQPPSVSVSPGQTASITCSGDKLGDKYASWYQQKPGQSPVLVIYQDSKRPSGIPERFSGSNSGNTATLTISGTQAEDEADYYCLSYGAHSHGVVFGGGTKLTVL gave IC50 of 10.5
